test system: HCI01 (cells of a triple-negative basal-like breast cancer xenograft); experiment: cell viability (% of vehicle); higher = less cytotoxic; conditions: 10 µM; 72 h;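 also: PDX cells carrying CMV promoter-driven luciferase, viability read as total photon flux per second by IVIS imaging following D-luciferin, vehicle control 0.1% DMSO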
Property: cell viability
The answer should be a number; do not append a unit.

Examples from the recorded data:
1. NC(=O)OCC(COC(N)=O)c1ccccc1 [Felbamate] : 71.2
2. C=C1C(=CC=C2CCCC3(C)C2CCC3C(C)CCCC(C)C)CC(O)CC1O (centres undefined) : 31.7
3. Nc1ccn(CC(CO)OCP(=O)(O)O)c(=O)n1.O.O (centres undefined) [Cidofovir dihydrate] : 120
4. COc1ccc(CNc2nc(N3CCCC3CO)ncc2C(=O)NCc2ncccn2)cc1Cl (centres undefined) : 155
5. O=C(O)CO.[NH2-].[NH2-].[Pt+2] : 52.5
6. Cc1cc(C(C)(C)C)cc(C)c1CC1=NCCN1.Cl [Xylometazoline HCl] : 74.9
7. COCCCOc1ccnc(C[S+]([O-])c2nc3ccccc3[nH]2)c1C (centres undefined) [Rabeprazole] : 156
8. CC(=CC(=O)OCCCCCCCCC(=O)O)CC1OCC(CC2OC2C(C)C(C)O)C(O)C1O (centres undefined) : 97.5

Proceeding to the next compound to report its cell viability.
Exercise: Value lookup for cell viability; key = CNCC(O)C(O)C(O)C(O)CO (centres undefined)
Solution: 80.2
